// reported growth per item
tested on: SK-MEL-2 melanoma; assay: NCI-60 one-dose screen, 48 h (100 = growth as untreated, 0 = no growth, -100 = all killed); settings: 10 µM unless noted
Compounds without any hit were thinned out: in the full panel of roughly 83,000, 20% have a hit.
Enter your answer as a number in %; do not include the unit.

Query: Report measured growth; entry is `Cc1ccc(C)c(-n2c(-c3ccc(Br)cc3)csc2=NC(=O)c2ccccc2F)c1`
Reply: 101

Continuing:
Query: Report measured growth; entry is Cc1ccc(S(=O)(=O)n2cc(C3C(Cl)C(=O)N3c3ccc(N4CCOCC4=O)cc3)c3ccccc32)cc1 (stereo not given)
Reply: 74.7

Query: Report measured growth; entry is `O=C(Cn1nnc2ccccc21)N/N=C/c1ccccc1F`
Reply: 102

Query: Report measured growth; entry is `N#CCC1=NC(c2cccs2)=Nc2ccccc2S1`
Reply: 96.9

Query: Report measured growth; entry is `O=C1Nc2ccc(F)cc2/C1=C\c1nc(-c2ccccc2F)n2ccccc12`
Reply: 38.3

Query: Report measured growth; entry is `C=C1C(=O)O[C@H]2[C@H]1CC/C(Cn1cc(-c3cc(C(F)(F)F)cc(C(F)(F)F)c3)nn1)=C\CC[C@@]1(C)O[C@@H]21`
Reply: -84.1

Query: Report measured growth; entry is `COc1cc(Nc2c3ccc(Cl)cc3nc3ccc(OC)cc23)c2ncccc2c1`
Reply: 78.6

Query: Report measured growth; entry is `COc1ccc(Nc2ncc(C(N)=O)c(NCCCNC(=O)C3CCC3)n2)cc1`
Reply: 51.8

Query: Report measured growth; entry is `Cc1ccccc1CNc1c2ccccc2nc2ccccc12`
Reply: 40.2
